target: human SOS1 (loading of human K-Ras^G12C-GDP with fluorescent GTP-analog) (Homo sapiens); assay: Biochemical assay 3: K-Ras^G12C activation assay by hSOS1 (HTRF); conditions: no GTP; read-out: Assay 3 (KRAS-Activation by SOS no GTP) activity expressed as IC50
Examples of compounds with documented IC50 follow.
Just the number in µM, nothing appended.

Q. Dear colleague, I am looking for the recorded IC50 of the following compound: COc1cc2nc(C)nc(N[C@H](C)c3cccc(-c4ccc(-c5nnc(C)o5)cc4)c3)c2cc1OC [Example 59]
A. 0.965

Q. Dear colleague, I am looking for the recorded IC50 of the following compound: COc1cc2nc(C)nc(N[C@H](C)c3cccc(-c4ccoc4)c3)c2cc1OC [Example 86]
A. 0.693

Q. Dear colleague, I am looking for the recorded IC50 of the following compound: COc1cc2nc(C)nc(N[C@H](C)c3cccc(-c4ccc5cc[nH]c5c4)c3)c2cc1OC [Example 109]
A. 1.41

Q. Dear colleague, I am looking for the recorded IC50 of the following compound: COc1cc2nc(C)nc(NC(C)c3ccc(-c4cnn(CCN5CCCC5)c4)s3)c2cc1OC (stereo not shown) [Example 220]
A. 1.01

Q. Dear colleague, I am looking for the recorded IC50 of the following compound: COc1cc2nc(C)nc(NC(C)c3ccc(-c4ccc(CN)cc4)s3)c2cc1OC (stereo not shown) [Example 266]
A. 3.74

Q. Dear colleague, I am looking for the recorded IC50 of the following compound: COc1cc2nc(C)nc(N[C@H](C)c3cccc(-c4ccc(CNS(C)(=O)=O)cc4)c3)c2cc1OC [Example 72]
A. 0.882

Q. Dear colleague, I am looking for the recorded IC50 of the following compound: COc1cc2nc(C)nc(NC(C)c3cc(Br)cc4c3OCC4)c2cc1OC (stereo not shown) [Example 214]
A. 13.6

Q. Dear colleague, I am looking for the recorded IC50 of the following compound: COc1cccc(-c2cccc([C@@H](C)Nc3nc(C)nc4cc(OC)c(OC)cc34)c2)c1 [Example 99]
A. 2.63

Q. Dear colleague, I am looking for the recorded IC50 of the following compound: CCOCc1ccccc1-c1ccc([C@H](C)Nc2nc(C)nc3cc(OC)c(OC)cc23)s1 (racemic) [Example 133]
A. 5.67

----------
molecular target: K-Ras^G12C : hSOS1 interaction (Homo sapiens, UniProt Q07889); test: Biochemical assay 1: K-Ras^G12C interaction assay with hSOS1 (HTRF); type: binding; conditions: read-out: Assay 1 (KRAS-SOS Interaction) activity expressed as IC50
Hi! Just check whether IC50 is below 900 nM. Below gives YES, equal or above gives NO.

                                   compound  qualitative_label
0  COCCNC(=O)CNCc1ccccc1-c1ccc(C(C)Nc2nc(C)nc3cc(OC)c(OC)cc23)s1 (stereo not shown)                YES
1  COc1cc2nc(C)nc(N[C@H](C)c3cccc(-c4ccnn4C)c3)c2cc1OC                YES
2  COc1cc2nc(C)nc(NC(C)c3ccc(-c4cccc5[nH]ncc45)s3)c2cc1OC (stereo not shown)                YES
3  CCOCc1ccccc1-c1ccc([C@H](C)Nc2nc(C)nc3cc(OC)c(OC)cc23)s1 (racemic)                 NO
4  C/C=C(\C)c1cccc([C@@H](C)Nc2nc(C)nc3cc(OC)c(OC)cc23)c1                YES
5  COc1cc2nc(C)nc(N[C@H](C)c3cccc(-c4ccccc4NC(C)=O)c3)c2cc1OC                YES
6  COc1cc2nc(C)nc(N[C@H](C)c3cccc(-c4ccc5c(c4)OCO5)c3)c2cc1OC                 NO
7  COc1cc2nc(C)nc(N[C@H](C)c3cccc(-c4ccccc4CN)c3)c2cc1OC                YES
8  COc1cc2nc(C)nc(NC(C)c3ccc(-c4ccc(F)cc4CNC(=O)CNc4ccccc4)s3)c2cc1OC (stereo not shown)                 NO
9  C=C(C)c1ccc([C@@H](C)Nc2nc(C)nc3cc(OC)c(OC)cc23)cc1                 NO

Q. Does this compound meet the criterion IC50 < 900 nM? COc1cc2nc(C)nc(N[C@H](C)c3cccc(C4=CCN(C)CC4)c3)c2cc1OC
A. NO

Q. Does this compound meet the criterion IC50 < 900 nM? COc1cc2nc(C)nc(NC(C)c3ccc(-c4ccccc4CNCC(=O)Nc4ccccc4)s3)c2cc1OC (stereo not shown)
A. NO

Q. Does this compound meet the criterion IC50 < 900 nM? COc1cc2nc(C)nc(N[C@H](C)c3ccc(C)cc3)c2cc1OC
A. YES

----------
target: human SOS1 (loading of human K-Ras^G12C-GDP with fluorescent GTP-analog) (Homo sapiens); experiment: Biochemical assay 3: K-Ras^G12C activation assay by hSOS1 (HTRF); conditions: E-notation values; unit inferred; read-out: Assay 3 (KRAS-Activation) IC50
Examples of compounds with documented log10 of IC50 follow.
Recorded IC50 (log10, µM)

Q. Dear colleague, I am looking for the recorded log10 of IC50 of the following compound: COCC(=O)NCc1cc(F)ccc1-c1ccc(C(C)Nc2nc(C)nc3cc(OC)c(OC)cc23)s1 (stereo not drawn) [Example 383]
A. 0.71

Q. Dear colleague, I am looking for the recorded log10 of IC50 of the following compound: CC(=O)NCCNc1ccc2nc(C)nc(NC(C)c3ccc(-c4ccccc4CN(C)C)s3)c2c1 (stereo not drawn) [Example 427]
A. -1.13

Q. Dear colleague, I am looking for the recorded log10 of IC50 of the following compound: COc1cc2nc(C)nc(NC(C)c3ccc(-c4ccccc4C(O)C(C)C)s3)c2cc1OC (stereo not drawn) [Example 379]
A. 0.21

Q. Dear colleague, I am looking for the recorded log10 of IC50 of the following compound: COc1cc(C)c2nc(C)nc(N[C@H](C)c3cccc(Cl)c3)c2c1 [Example 396]
A. 0.50

Q. Dear colleague, I am looking for the recorded log10 of IC50 of the following compound: COc1ccc(-c2ccc(C(C)Nc3nc(C)nc4cc(OC)c(OC)cc34)s2)c(CN(C)C)c1 (stereo not drawn) [Example 439]
A. -0.64

Q. Dear colleague, I am looking for the recorded log10 of IC50 of the following compound: COc1cc2nc(C)nc(NC(C)c3cc(C)c(-c4ccccc4CN(C)CCO)s3)c2cc1OC (stereo not drawn) [Example 401]
A. -1.08

----------
target: human SOS1 (loading of human K-Ras^G12C-GDP with fluorescent GTP-analog) (Homo sapiens, UniProt Q07889); assay: Biochemical assay 3: K-Ras^G12C activation assay by hSOS1 (HTRF); conditions: no GTP; read-out: Assay 3 (KRAS-Activation by SOS no GTP) activity expressed as IC50
REPORTED ENDPOINT: pIC50
Scale note: pIC50 = -log10(concentration in M).

Record excerpt, results attached:
In [3]: df
Out[3]:
                                   compound  data_value
0  COc1cc2nc(C)nc(NC(C)c3cccc4c3CCCC4)c2cc1OC (stereo not shown) [Example 11]        6.27
1  COc1cc2nc(C)nc(N[C@H](C)c3cccc(C4=CCN(C)CC4)c3)c2cc1OC [Example 202]        5.27
2  COc1cc2nc(C)nc(NC(C)c3cccc4ncccc34)c2cc1OC (stereo not shown) [Example 212]        5.58
3  COc1ncc(-c2cccc([C@@H](C)Nc3nc(C)nc4cc(OC)c(OC)cc34)c2)cn1 [Example 111]        5.48
4  COc1cc2nc(C)nc(NC(C)c3ccc(-c4ccccc4CN)s3)c2cc1OC (stereo not shown) [Example 252]        6.99
5  COc1cc2nc(C)nc(NC(C)c3cncc4sccc34)c2cc1OC (stereo not shown) [Example 332]        4.94
6  Cc1nc(N[C@H](C)c2cccc(Cl)c2)c2cc(Br)ccc2n1 [Example 363]        4.76
7  COc1cc2nc(C)nc(N[C@@H](C)c3ccc(-c4ccc(C)cc4C)s3)c2cc1OC (racemic) [Example 161]        5.15

Q. Dear colleague, I am looking for the recorded pIC50 of the following compound: COc1cc2nc(C)nc(N[C@H](C)c3cccc(-c4ccc5c(c4)OCCO5)c3)c2cc1OC [Example 125]
A. 5.69

Q. Dear colleague, I am looking for the recorded pIC50 of the following compound: COc1cc(F)cc(-c2cccc([C@@H](C)Nc3nc(C)nc4cc(OC)c(OC)cc34)c2)c1 [Example 65]
A. 4.87

Reference for the values: patent US20240083857A1
